Target: RPS6KB2 (human) (UniProt Q9UBS0)
Sequence (Q9UBS0 whole entry, looked up): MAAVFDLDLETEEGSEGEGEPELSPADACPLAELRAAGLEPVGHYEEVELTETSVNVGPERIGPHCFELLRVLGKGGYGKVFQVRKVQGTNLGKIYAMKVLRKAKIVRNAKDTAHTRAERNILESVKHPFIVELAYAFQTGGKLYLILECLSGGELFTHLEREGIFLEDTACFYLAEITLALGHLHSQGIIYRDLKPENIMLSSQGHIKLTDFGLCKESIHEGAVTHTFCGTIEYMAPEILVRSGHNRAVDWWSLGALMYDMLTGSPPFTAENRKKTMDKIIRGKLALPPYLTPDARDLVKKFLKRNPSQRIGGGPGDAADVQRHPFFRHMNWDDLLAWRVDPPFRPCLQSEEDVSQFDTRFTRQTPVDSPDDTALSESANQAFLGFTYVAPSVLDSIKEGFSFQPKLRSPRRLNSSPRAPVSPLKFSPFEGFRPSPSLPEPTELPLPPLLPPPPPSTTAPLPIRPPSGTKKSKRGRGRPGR
Assay: radiometric filter-binding kinase assay, Kinase HotSpot
Settings: compound 0.5 µM; ATP 10 µM

compoundString: CC[n+]1c(/C=C/N(C)c2ccccc2)n(-c2ccccc2)c2ccc(-c3nc4ccccc4s3)cc21
systemName: RPS6KB2 (human) (UniProt Q9UBS0)
residual activity: 93.2%

compoundString: Cc1ccc(S(=O)(=O)/C=C/C#N)cc1
systemName: RPS6KB2 (human) (UniProt Q9UBS0)
residual activity: 109%

compoundString: Oc1cccc(-c2nc(N3CCOCC3)c3oc4ncccc4c3n2)c1
systemName: RPS6KB2 (human) (UniProt Q9UBS0)
residual activity: 95.8%

compoundString: Nc1cccc(-c2cc3c(Oc4cccc(O)c4)ncnc3[nH]2)c1
systemName: RPS6KB2 (human) (UniProt Q9UBS0)
residual activity: 94.7%

compoundString: Cc1ccc(Nc2nccc(N(C)c3ccc4c(C)n(C)nc4c3)n2)cc1S(N)(=O)=O
systemName: RPS6KB2 (human) (UniProt Q9UBS0)
residual activity: 103%

----------
Measured residual activity by item
Target: CAMK2D (human)
Assay: radiometric filter-binding kinase assay, Kinase HotSpot
Conditions: compound 0.5 µM; ATP 10 µM
readoutType: residual activity (%)

compoundString: Nc1cccc(-c2cc3c(Oc4cccc(O)c4)ncnc3[nH]2)c1
readoutType: residual activity
readoutUnit: %
dataValue: 99.8

compoundString: O=C1NC(=O)/C(=C/c2ccc3c(c2)OC(F)(F)O3)S1
readoutType: residual activity
readoutUnit: %
dataValue: 97.1

compoundString: Cc1ccc(Nc2nccc(N(C)c3ccc4c(C)n(C)nc4c3)n2)cc1S(N)(=O)=O
readoutType: residual activity
readoutUnit: %
dataValue: 99.4

compoundString: Nc1ncnc2c1c(-c1ccc(Oc3ccccc3)cc1)cn2C1CCCC1
readoutType: residual activity
readoutUnit: %
dataValue: 99.5

compoundString: CC[n+]1c(/C=C/N(C)c2ccccc2)n(-c2ccccc2)c2ccc(-c3nc4ccccc4s3)cc21
readoutType: residual activity
readoutUnit: %
dataValue: 94

compoundString: c1ccc(-c2n[nH]cc2-c2ccnc3ccccc23)nc1
readoutType: residual activity
readoutUnit: %
dataValue: 101

----------
Molecular target: BRAF (human)
Test: radiometric filter-binding kinase assay, Kinase HotSpot
Conditions: compound 0.5 µM; ATP 10 µM
Measured residual activity by item

compoundString: CCC(=O)Nc1ccc2ncnc(Nc3cccc(Br)c3)c2c1
readoutUnit: %
residual activity: 93

compoundString: O=S(=O)(c1cccc2cnccc12)N1CCCNCC1
readoutUnit: %
residual activity: 97.7

compoundString: N#C/C(=C(/N)Sc1ccc(N)cc1)c1ccccc1C(F)(F)F
readoutUnit: %
residual activity: 95

compoundString: Nc1cccc(-c2cc3c(Oc4cccc(O)c4)ncnc3[nH]2)c1
readoutUnit: %
residual activity: 53.2

compoundString: COc1cc2ncnc(Nc3cccc(Cl)c3)c2cc1OC
readoutUnit: %
residual activity: 96

compoundString: CCOC(=O)c1c(C)[nH]c(/C=C2\C(=O)Nc3ccccc32)c1C
readoutUnit: %
residual activity: 96.7

compoundString: O=C1NC(=O)/C(=C/c2ccc3c(c2)OC(F)(F)O3)S1
readoutUnit: %
residual activity: 96.3

compoundString: CC(C)N(CCC(=O)c1ccc2ccccc2c1)Cc1ccccc1
readoutUnit: %
residual activity: 95.6

compoundString: Cc1[nH]c(/C=C2\C(=O)Nc3ccc(S(=O)(=O)N(C)c4cccc(Cl)c4)cc32)c(C)c1C(=O)N1CCN(C)CC1
readoutUnit: %
residual activity: 91.9

compoundString: Nc1ncnc2c1c(-c1ccc(Oc3ccccc3)cc1)cn2C1CCCC1
readoutUnit: %
residual activity: 85.4

----------
Molecular target: UniProt:Q9NQU5
Sequence (Q9NQU5 whole entry, looked up): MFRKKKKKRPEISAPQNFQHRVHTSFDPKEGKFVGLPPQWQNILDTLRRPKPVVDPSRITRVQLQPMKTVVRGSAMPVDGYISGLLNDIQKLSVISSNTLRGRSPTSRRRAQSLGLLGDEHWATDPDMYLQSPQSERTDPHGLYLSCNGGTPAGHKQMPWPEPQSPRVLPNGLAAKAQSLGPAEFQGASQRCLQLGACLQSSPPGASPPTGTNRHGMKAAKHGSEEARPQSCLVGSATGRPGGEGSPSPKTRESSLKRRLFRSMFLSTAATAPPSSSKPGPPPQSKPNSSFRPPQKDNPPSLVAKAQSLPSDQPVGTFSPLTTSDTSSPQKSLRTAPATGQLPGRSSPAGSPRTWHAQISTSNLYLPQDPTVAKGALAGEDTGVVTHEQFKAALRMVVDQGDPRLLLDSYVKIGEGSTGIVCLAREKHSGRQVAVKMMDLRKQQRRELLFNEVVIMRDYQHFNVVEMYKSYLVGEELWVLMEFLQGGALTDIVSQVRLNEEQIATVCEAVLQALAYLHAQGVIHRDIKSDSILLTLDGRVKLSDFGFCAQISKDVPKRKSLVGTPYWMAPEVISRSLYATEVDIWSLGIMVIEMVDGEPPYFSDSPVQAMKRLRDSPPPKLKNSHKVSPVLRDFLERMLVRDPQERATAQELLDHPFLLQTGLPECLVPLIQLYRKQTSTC
Assay: radiometric filter-binding kinase assay, Kinase HotSpot
Conditions: compound 0.5 µM; ATP 10 µM
readoutType: residual activity (%)

molecule: c1ccc(-c2n[nH]c3c2oc2ccccc23)cc1
readoutType: residual activity
dataValue: 87.5
//
molecule: CCCC(=O)Oc1ccc2[nH]c(C(=O)c3cc4ccccc4[nH]3)cc2c1
readoutType: residual activity
dataValue: 94.5
//
molecule: CC(C)N(CCC(=O)c1ccc2ccccc2c1)Cc1ccccc1
readoutType: residual activity
dataValue: 116
//
molecule: Cc1[nH]c(/C=C2\C(=O)Nc3ccc(S(=O)(=O)N(C)c4cccc(Cl)c4)cc32)c(C)c1C(=O)N1CCN(C)CC1
readoutType: residual activity
dataValue: 108
//
molecule: CCC(=O)Nc1ccc2ncnc(Nc3cccc(Br)c3)c2c1
readoutType: residual activity
dataValue: 101
//
molecule: CO[C@H]1CC2CC[C@@H](C)[C@@](O)(O2)C(=O)C(=O)N2CCCC[C@H]2C(=O)OC([C@H](C)C[C@@H]2CC[C@@H](O)[C@H](OC)C2)CC(=O)[C@H](C)/C=C(\C)[C@@H](O)[C@@H](OC)C(=O)[C@H](C)C[C@H](C)/C=C/C=C/C=C/1C (some centres undefined)
readoutType: residual activity
dataValue: 112
//
molecule: CC(=O)c1ccc(N2CCOCC2)cc1O
readoutType: residual activity
dataValue: 93.7
//
molecule: Oc1cccc(-c2nc(N3CCOCC3)c3oc4ncccc4c3n2)c1
readoutType: residual activity
dataValue: 105
//
molecule: c1ccc(-c2n[nH]cc2-c2ccnc3ccccc23)nc1
readoutType: residual activity
dataValue: 106

----------
Target: CSNK1G2 (human) (UniProt P78368)
Sequence (P78368 whole entry, looked up): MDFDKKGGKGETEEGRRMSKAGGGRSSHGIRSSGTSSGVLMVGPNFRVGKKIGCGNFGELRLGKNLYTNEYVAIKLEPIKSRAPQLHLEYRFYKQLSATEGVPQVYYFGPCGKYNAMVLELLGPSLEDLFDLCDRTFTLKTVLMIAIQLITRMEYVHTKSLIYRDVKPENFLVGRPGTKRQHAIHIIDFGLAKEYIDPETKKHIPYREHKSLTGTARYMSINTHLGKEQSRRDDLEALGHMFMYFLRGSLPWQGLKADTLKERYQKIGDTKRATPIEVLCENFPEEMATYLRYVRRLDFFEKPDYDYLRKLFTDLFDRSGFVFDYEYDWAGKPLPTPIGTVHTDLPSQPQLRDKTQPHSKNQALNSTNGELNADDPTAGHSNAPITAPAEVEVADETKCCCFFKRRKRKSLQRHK
Experiment: radiometric filter-binding kinase assay, Kinase HotSpot
Details: compound 0.5 µM; ATP 10 µM
readoutType: residual activity (%)

compoundString: Oc1cccc(-c2nc(N3CCOCC3)c3oc4ncccc4c3n2)c1
readoutType: residual activity
dataValue: 88.1

compoundString: Cc1ccc(Nc2nccc(N(C)c3ccc4c(C)n(C)nc4c3)n2)cc1S(N)(=O)=O
readoutType: residual activity
dataValue: 96.9

compoundString: N#C/C(=C(/N)Sc1ccc(N)cc1)c1ccccc1C(F)(F)F
readoutType: residual activity
dataValue: 96.4

compoundString: CC[n+]1c(/C=C/N(C)c2ccccc2)n(-c2ccccc2)c2ccc(-c3nc4ccccc4s3)cc21
readoutType: residual activity
dataValue: 101

compoundString: CC#CC(=O)Nc1cc2c(Nc3ccc(F)c(Cl)c3)ncnc2cn1
readoutType: residual activity
dataValue: 94.9

compoundString: O=c1cc(N2CCOCC2)oc2c1ccc1ccccc12
readoutType: residual activity
dataValue: 102

compoundString: O=C1NC(=O)c2c1c1c3ccccc3n3c1c1c2c2ccccc2n1C1CCC3O1
readoutType: residual activity
dataValue: 81.8

compoundString: Nc1ncnc2c1c(-c1ccc(Oc3ccccc3)cc1)cn2C1CCCC1
readoutType: residual activity
dataValue: 93.7

compoundString: Nc1cccc(-c2cc3c(Oc4cccc(O)c4)ncnc3[nH]2)c1
readoutType: residual activity
dataValue: 84.9

compoundString: CC(=O)c1ccc(N2CCOCC2)cc1O
readoutType: residual activity
dataValue: 102

compoundString: CCCC(=O)Oc1ccc2[nH]c(C(=O)c3cc4ccccc4[nH]3)cc2c1
readoutType: residual activity
dataValue: 95.5

compoundString: Nc1ccc2ncnc(NCCc3ccc(Oc4ccccc4)cc3)c2c1
readoutType: residual activity
dataValue: 100

compoundString: O=C1NC(=O)C(c2cn(CCCn3ccnc3)c3ccccc23)=C1Nc1ccccc1
readoutType: residual activity
dataValue: 95.4

compoundString: CCOC(=O)c1c(C)[nH]c(/C=C2\C(=O)Nc3ccccc32)c1C
readoutType: residual activity
dataValue: 84.8

compoundString: COc1ccc(COc2ccc(Cc3cnc(N)nc3N)cc2OC)cc1
readoutType: residual activity
dataValue: 101

compoundString: Cc1ccc(NC2=CC(=O)c3sc(C)nc3C2=O)cc1
readoutType: residual activity
dataValue: 99.9

compoundString: CCN(CC)CCNC(=O)c1c(C)[nH]c(/C=C2\C(=O)Nc3ccc(Cl)cc32)c1C
readoutType: residual activity
dataValue: 45.2

compoundString: O=C1Nc2ccc(Cl)cc2/C1=C/c1cc(Cl)c(O)c(Cl)c1
readoutType: residual activity
dataValue: 83.5

compoundString: COc1cc2ncnc(Nc3cccc(Cl)c3)c2cc1OC
readoutType: residual activity
dataValue: 97.1

compoundString: Nc1ncnc2[nH]nc(Nc3ccc(F)cc3)c12
readoutType: residual activity
dataValue: 95.7

compoundString: O=S(=O)(c1cccc2cnccc12)N1CCCNCC1
readoutType: residual activity
dataValue: 93.7

compoundString: c1ccc(-c2n[nH]cc2-c2ccnc3ccccc23)nc1
readoutType: residual activity
dataValue: 103

compoundString: CCN(CC)C(=O)c1ccc(Nc2nc(OCC3CCCCC3)c3nc[nH]c3n2)cc1
readoutType: residual activity
dataValue: 59.8

----------
Biological target: TEK (human) (UniProt Q02763)
Sequence (Q02763 whole entry, looked up): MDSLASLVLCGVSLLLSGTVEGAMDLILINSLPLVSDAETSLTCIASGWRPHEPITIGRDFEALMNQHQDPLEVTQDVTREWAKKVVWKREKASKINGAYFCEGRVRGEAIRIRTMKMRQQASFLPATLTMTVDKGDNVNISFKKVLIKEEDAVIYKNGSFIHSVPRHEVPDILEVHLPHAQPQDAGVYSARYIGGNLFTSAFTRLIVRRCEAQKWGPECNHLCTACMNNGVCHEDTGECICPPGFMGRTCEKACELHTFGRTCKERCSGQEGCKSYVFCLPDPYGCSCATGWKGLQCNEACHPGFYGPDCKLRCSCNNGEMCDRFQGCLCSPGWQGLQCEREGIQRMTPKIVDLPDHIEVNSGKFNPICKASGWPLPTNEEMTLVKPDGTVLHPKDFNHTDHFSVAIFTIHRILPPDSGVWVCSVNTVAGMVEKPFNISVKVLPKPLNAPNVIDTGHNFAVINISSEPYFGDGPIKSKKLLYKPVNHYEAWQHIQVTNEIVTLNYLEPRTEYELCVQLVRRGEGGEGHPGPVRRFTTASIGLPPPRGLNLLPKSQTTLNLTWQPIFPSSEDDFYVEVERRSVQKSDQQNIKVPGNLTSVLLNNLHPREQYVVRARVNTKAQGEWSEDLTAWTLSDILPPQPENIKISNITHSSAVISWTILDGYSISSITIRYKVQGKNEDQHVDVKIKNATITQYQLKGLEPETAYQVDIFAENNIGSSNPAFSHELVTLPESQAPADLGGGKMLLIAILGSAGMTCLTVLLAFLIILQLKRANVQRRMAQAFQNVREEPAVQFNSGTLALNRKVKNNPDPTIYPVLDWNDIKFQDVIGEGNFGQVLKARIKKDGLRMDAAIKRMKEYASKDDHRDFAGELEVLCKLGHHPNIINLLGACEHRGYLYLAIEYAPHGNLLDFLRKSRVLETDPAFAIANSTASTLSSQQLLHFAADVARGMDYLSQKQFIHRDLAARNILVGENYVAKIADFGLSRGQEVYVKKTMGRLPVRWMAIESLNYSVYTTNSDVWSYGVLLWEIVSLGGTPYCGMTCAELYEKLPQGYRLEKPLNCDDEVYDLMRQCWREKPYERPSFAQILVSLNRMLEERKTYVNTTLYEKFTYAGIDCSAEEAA
Test: radiometric filter-binding kinase assay, Kinase HotSpot
Details: compound 0.5 µM; ATP 10 µM
Measured residual activity by item

compoundString: COc1ccc2c(c[n+](C)c3c4cc5c(cc4ccc23)OCO5)c1OC
systemName: TEK (human) (UniProt Q02763)
residual activity / %: 97.2
//
compoundString: N#CC(C#N)=C(N)/C(C#N)=C/c1ccc(O)cc1
systemName: TEK (human) (UniProt Q02763)
residual activity / %: 104
//
compoundString: O=C1Nc2ccc(Cl)cc2/C1=C/c1cc(Cl)c(O)c(Cl)c1
systemName: TEK (human) (UniProt Q02763)
residual activity / %: 93
//
compoundString: Nc1cccc(-c2cc3c(Oc4cccc(O)c4)ncnc3[nH]2)c1
systemName: TEK (human) (UniProt Q02763)
residual activity / %: 60.7
//
compoundString: Cc1ccc(NC2=CC(=O)c3sc(C)nc3C2=O)cc1
systemName: TEK (human) (UniProt Q02763)
residual activity / %: 95.9
//
compoundString: Nc1ncnc2c1c(-c1ccc(Oc3ccccc3)cc1)cn2C1CCCC1
systemName: TEK (human) (UniProt Q02763)
residual activity / %: 94.3
//
compoundString: O=S(=O)(c1cccc2cnccc12)N1CCCNCC1
systemName: TEK (human) (UniProt Q02763)
residual activity / %: 98.4
//
compoundString: CC(=O)c1ccc(N2CCOCC2)cc1O
systemName: TEK (human) (UniProt Q02763)
residual activity / %: 101
//
compoundString: Nc1ncnc2[nH]nc(Nc3ccc(F)cc3)c12
systemName: TEK (human) (UniProt Q02763)
residual activity / %: 94.9
//
compoundString: CNC(=O)c1cc(Oc2ccc(NC(=O)Nc3ccc(Cl)c(C(F)(F)F)c3)cc2)ccn1
systemName: TEK (human) (UniProt Q02763)
residual activity / %: 104
//
compoundString: CC[n+]1c(/C=C/N(C)c2ccccc2)n(-c2ccccc2)c2ccc(-c3nc4ccccc4s3)cc21
systemName: TEK (human) (UniProt Q02763)
residual activity / %: 96
